target: A₂ receptor (Rattus norvegicus); construct: from tissue; host or cells: rat corpus striatum membrane preparation; test: Adenosine A₂ receptor binding test (³H-NECA binding); settings: read-out: Inhibition (%) A₂ Receptor
Tick YES if inhibition at 100 µM is 90% or greater. Tick NO if inhibition at 100 µM is less than 90%.

compound	category
CCn1c(=O)c2c(nc(/C=C/c3ccc4c(c3)OCCO4)n2C)n(CC)c1=O [Compound 18]	YES
COc1ccc(/C=C/c2nc3c([nH]2)c(=O)n(C)c(=O)n3C)c(C)c1C [Compound 21]	NO
CCn1c(=O)c2[nH]c(/C=C/c3ccc(OC)c(C)c3C)nc2n(CC)c1=O [Compound 9]	NO
CCn1c(=O)c2[nH]c(/C=C/c3ccc(OC)c(OC)c3)nc2n(CC)c1=O [Compound 1]	YES
CCn1c(=O)c2[nH]c(/C=C/c3ccc4c(c3)OCO4)nc2n(CC)c1=O [Compound 15]	NO

###

target: A₂ receptor (Rattus norvegicus, UniProt P30543)
Sequence (P30543 whole entry): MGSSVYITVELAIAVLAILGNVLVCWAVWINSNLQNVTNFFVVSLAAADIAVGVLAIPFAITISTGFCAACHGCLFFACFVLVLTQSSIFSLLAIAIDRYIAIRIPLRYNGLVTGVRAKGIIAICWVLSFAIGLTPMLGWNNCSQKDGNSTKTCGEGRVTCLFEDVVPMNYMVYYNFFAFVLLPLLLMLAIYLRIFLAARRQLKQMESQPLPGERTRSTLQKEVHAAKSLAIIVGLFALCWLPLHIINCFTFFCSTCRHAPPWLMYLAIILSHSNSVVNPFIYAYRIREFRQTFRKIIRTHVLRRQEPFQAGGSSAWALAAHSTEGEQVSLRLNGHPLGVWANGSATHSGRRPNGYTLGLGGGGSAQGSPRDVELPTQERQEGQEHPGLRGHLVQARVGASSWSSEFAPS
pKi: −log10 of the molar value.
property.name: pKi

input.smiles	target.or.test.system	value.measured
CCn1c(=O)c2c(nc(/C=C/c3ccc4c(c3)OCO4)n2C)n(CC)c1=O	A₂ receptor (Rattus norvegicus, UniProt P30543)	8.21
COc1ccc(/C=C/c2nc3c([nH]2)c(=O)n(C)c(=O)n3C)c(OC)c1OC	A₂ receptor (Rattus norvegicus, UniProt P30543)	6.51
CCn1c(=O)c2[nH]c(/C=C/c3ccc4c(c3)OCO4)nc2n(CC)c1=O	A₂ receptor (Rattus norvegicus, UniProt P30543)	7.82
CCn1c(=O)c2[nH]c(/C=C/c3ccc4c(c3)OCCO4)nc2n(CC)c1=O	A₂ receptor (Rattus norvegicus, UniProt P30543)	8.20
CCn1c(=O)c2c(nc(/C=C/c3cccc(OC)c3OC)n2C)n(CC)c1=O	A₂ receptor (Rattus norvegicus, UniProt P30543)	7.48
CCn1c(=O)c2c(nc(/C=C/c3ccc(OC)c(C)c3C)n2C)n(CC)c1=O	A₂ receptor (Rattus norvegicus, UniProt P30543)	8.70
CCn1c(=O)c2c(nc(/C=C/c3ccc(OC)c(OC)c3OC)n2C)n(CC)c1=O	A₂ receptor (Rattus norvegicus, UniProt P30543)	8.41
CCn1c(=O)c2c(nc(/C=C/c3ccc(OC)c(C)c3OC)n2C)n(CC)c1=O	A₂ receptor (Rattus norvegicus, UniProt P30543)	8.80

###

System: dd-strain male mice
Assay: Acute toxicity test (minimum lethal dose, oral)
Type: in vivo
Conditions: oral administration, three mice per group, mortality seven days after administration
Protocol: Test compounds were orally administered to groups of dd-strain male mice weighing 20 ± 1 g, each group consisting of three mice. Seven days after the administration, minimum lethal dose (MLD) of each compound was determined by observing the mortality.
Known MLD of a selection of compounds
property.name: MLD

compound	value.measured
COc1ccc(/C=C/c2nc3c(c(=O)n(C)c(=O)n3C)n2C)cc1Br [Compound 58, (E)-8-(3-Bromo-4-methoxystyryl)caffeine]	> 300 mg/kg
CCn1c(=O)c2c(nc(/C(C)=C/c3ccccc3)n2C)n(CC)c1=O	> 300 mg/kg
CCn1c(=O)c2[nH]c(/C=C/c3ccc(C(F)(F)F)cc3)nc2n(CC)c1=O	> 100 mg/kg
CCn1c(=O)c2c(nc(/C=C/c3ccc(OC)c(C)c3)n2C)n(CC)c1=O	> 100 mg/kg
COc1ccc(/C=C/c2nc3c([nH]2)c(=O)n(C)c(=O)n3C)c(OC)c1C	> 100 mg/kg
CCn1c(=O)c2[nH]c(/C=C/c3cc(F)cc(F)c3)nc2n(CC)c1=O	> 100 mg/kg
Cn1c(=O)c2c(nc(/C=C/c3ccc4c(c3)OCO4)n2C)n(C)c1=O [Compound 24, (E)-8-(3,4-Methylenedioxystyryl)caffeine]	> 300 mg/kg
CCn1c(=O)c2c(nc(/C=C/c3cccc(Cl)c3)n2C)n(CC)c1=O	> 300 mg/kg
CCn1c(=O)c2c(nc(/C=C/c3ccc(OC)c(O)c3)n2C)n(CC)c1=O	> 100 mg/kg
CCn1c(=O)c2[nH]c(/C=C/c3ccc(F)cc3)nc2n(CC)c1=O	> 100 mg/kg
CCn1c(=O)c2[nH]c(/C=C/c3ccccc3OC)nc2n(CC)c1=O	> 100 mg/kg
COc1ccc(/C=C/c2nc3c(c(=O)n(C)c(=O)n3C)n2C)c(OC)c1C	> 100 mg/kg
CCn1c(=O)c2c(nc(/C=C/c3ccc(Br)cc3)n2C)n(CC)c1=O	> 100 mg/kg
CCn1c(=O)c2[nH]c(/C=C/c3ccc(N(C)C)cc3)nc2n(CC)c1=O	> 100 mg/kg
CCn1c(=O)c2c(nc(/C=C/c3cc(OC)c4c(c3)OCO4)n2C)n(CC)c1=O	> 100 mg/kg
CCn1c(=O)c2[nH]c(/C=C/c3ccc(Br)cc3)nc2n(CC)c1=O	> 100 mg/kg
COc1ccc(/C=C/c2nc3c(c(=O)n(C)c(=O)n3C)n2C)c(Cl)c1OC	> 300 mg/kg

###

Test system: Haloperidol-Induced Catalepsy
Test: Effect on haloperidol-induced catalepsy
Type: in vivo, mice
Details: Mus musculus, 1 h; ten mice at each dose, effective = catalepsy score 3 or less, Probit analysis; oral; read-out: ED₅₀
Protocol: Haloperidol (Janssen Pharmaceutica) suspended in 0.3% CMC was intraperitoneally administered to each mouse at a dose of 1.0 mg/kg. Test compounds were suspended in 0.3% CMC or in injectable distilled water (Otsuka Pharmaceutical Co., Ltd.) containing Tween 80. L-DOPA (Kyowa Hakko Kogyo Co., Ltd.) and benserazide hydrochloride (Kyowa Hakko Kogyo Co., Ltd.) were suspended in 0.3% CMC. […] The ED₅₀ values were calculated by Probit analysis.
# y = ED50 below 2 mg/kg (exclusive); n = ED50 at/above 2 mg/kg

compound	category
CCn1c(=O)c2c(nc(/C=C/c3ccc(OC)c(OC)c3OC)n2C)n(CC)c1=O [Compound 8]	y
CCCOc1ccc(/C=C/c2nc3c(c(=O)n(CC)c(=O)n3CC)n2C)cc1 [Compound 38]	n
CCn1c(=O)c2c(nc(/C=C/c3cc(C)ccc3C)n2C)n(CC)c1=O [Compound 34]	n
CCn1c(=O)c2c(nc(/C=C/c3ccc(OC)c(OC)c3)n2C)n(CC)c1=O [Compound 2]	y
CCn1c(=O)c2c(nc(/C=C/c3ccc(OC)c(OC)c3Cl)n2C)n(CC)c1=O [Compound 50]	n
COc1ccc(/C=C/c2nc3c(c(=O)n(C)c(=O)n3C)n2C)c(Cl)c1OC [Compound 52]	y
CCn1c(=O)c2c(nc(/C=C/c3ccc4c(c3)OCO4)n2C)n(CC)c1=O [Compound 16]	y
CCOc1ccc(/C=C/c2nc3c(c(=O)n(CC)c(=O)n3CC)n2C)cc1 [Compound 36]	y
CCn1c(=O)c2c(nc(/C=C/c3ccc4c(c3)OCCO4)n2C)n(CC)c1=O [Compound 18]	y
CCn1c(=O)c2c(nc(/C=C/c3ccc(OC)c(C)c3C)n2C)n(CC)c1=O [Compound 10]	y

###

biological target: A₂ receptor (Rattus norvegicus, UniProt P30543); construct: from tissue; host or cells: rat corpus striatum membrane preparation; assay: Adenosine A₂ receptor binding test (³H-CGS 21680 binding); details: 10^-7M; [^3H]CGS 21680 was used, rat corpus striatum; read-out: A2 Receptor Inhibition (%)
Known inhibition at 0.1 µM of a selection of molecules

molecule	inhibition at 0.1 µM (%)
CCn1c(=O)c2c(nc(/C=C/c3cc4c(cc3Br)OCO4)n2C)n(CC)c1=O [Compound 96]	84
CCn1c(=O)c2[nH]c(/C=C/c3cc(OC)c4c(c3)OCO4)nc2n(CC)c1=O [Compound 106]	83
CCn1c(=O)c2c(nc(/C=C/c3cc(OC)c4c(c3)OCO4)n2C)n(CC)c1=O [Compound 107]	93
CCn1c(=O)c2c(nc(/C=C/c3cccc(OC)c3[N+](=O)[O-])n2C)n(CC)c1=O [Compound 64]	89
CCn1c(=O)c2[nH]c(/C=C/c3ccc(C)cc3)nc2n(CC)c1=O [Compound 43]	68
CCn1c(=O)c2c(nc(/C=C/c3cccc(Oc4ccccc4)c3)n2C)n(CC)c1=O [Compound 120]	89
CCn1c(=O)c2c(nc(/C=C/c3ccccc3F)n2C)n(CC)c1=O [Compound 98]	92
CCn1c(=O)c2c(nc(/C=C/c3cccc(C(F)(F)F)c3)n2C)n(CC)c1=O [Compound 94]	71
CCn1c(=O)c2c(nc(/C=C/c3ccc(OCOC)cc3)n2C)n(CC)c1=O [Compound 82]	86
CCn1c(=O)c2c(nc(/C=C/c3cccc(OC(F)(F)F)c3)n2C)n(CC)c1=O [Compound 80]	72
CCn1c(=O)c2c(nc(/C=C/c3ccc(Br)cc3)n2C)n(CC)c1=O [Compound 78]	68
CCn1c(=O)c2c(nc(/C=C/c3cccc(Br)c3)n2C)n(CC)c1=O [Compound 92]	93
CCn1c(=O)c2c(nc(/C=C/c3ccc(O)cc3)n2C)n(CC)c1=O [Compound 112]	79
CCn1c(=O)c2c(nc(/C=C/c3ccc(OC)c(F)c3)n2C)n(CC)c1=O [Compound 103]	75
CCn1c(=O)c2[nH]c(/C=C/c3cccc(OC)c3)nc2n(CC)c1=O [Compound 39]	80
CCn1c(=O)c2c(nc(/C=C/c3ccc(OCCCCBr)cc3)n2C)n(CC)c1=O [Compound 114]	23
CCn1c(=O)c2c(nc(/C=C/c3ccc(O)c(O)c3)n2C)n(CC)c1=O [Compound 110]	61
CCn1c(=O)c2c(nc(/C=C/c3cccc(OC)c3)n2C)n(CC)c1=O [Compound 40]	88
CCn1c(=O)c2[nH]c(/C=C/c3ccc(Br)cc3)nc2n(CC)c1=O [Compound 77]	54
CCn1c(=O)c2c(nc(/C=C/c3cc(C(F)(F)F)cc(C(F)(F)F)c3)n2C)n(CC)c1=O [Compound 86]	29
CCn1c(=O)c2c(nc(/C=C/c3ccc(C(F)(F)F)cc3)n2C)n(CC)c1=O [Compound 74]	59
CCn1c(=O)c2c(nc(/C=C/c3cccc(F)c3C)n2C)n(CC)c1=O [Compound 109]	97
CCn1c(=O)c2[nH]c(/C=C/c3ccc(F)cc3)nc2n(CC)c1=O [Compound 83]	75
CCn1c(=O)c2[nH]c(/C=C/c3cccc([N+](=O)[O-])c3)nc2n(CC)c1=O [Compound 89]	59
CCn1c(=O)c2[nH]c(/C=C/c3cccc(F)c3C)nc2n(CC)c1=O [Compound 108]	87
CCn1c(=O)c2c(nc(/C=C/c3ccc(F)cc3)n2C)n(CC)c1=O [Compound 84]	82
CCn1c(=O)c2[nH]c(/C=C/c3cc4c(cc3Br)OCO4)nc2n(CC)c1=O [Compound 95]	75
